- TEST PROTOCOL: Displacement of ivermectin from avermectin receptor of Caenorhabditis elegans
MEASURE NAME: Ki (nM)
Write the value in nM as a bare number.

• CC[C@H](C)[C@H]1O[C@]2(CC[C@@H]1C)C[C@@H]1C[C@@H](C/C=C(\C)[C@H](F)[C@@H](C)/C=C/C=C3\CO[C@@H]4[C@H](O)C(C)=C[C@@H](C(=O)O1)[C@]34O)O2 = 0.3
• CC[C@H](C)[C@H]1O[C@]2(CC[C@@H]1C)C[C@@H]1C[C@@H](C/C=C(\C)[C@@H](OCOCCOC)[C@@H](C)/C=C/C=C3\CO[C@@H]4[C@H](O)C(C)=C[C@@H](C(=O)O1)[C@]34O)O2 = 2.7
• CC[C@H](C)[C@H]1O[C@]2(CC[C@@H]1C)C[C@@H]1C[C@@H](C/C=C(\C)[C@H](OCOCCOC)[C@@H](C)/C=C/C=C3\CO[C@@H]4[C@H](O)C(C)=C[C@@H](C(=O)O1)[C@]34O)O2 = 2.9

We next turn to a different compound, shown below.
Fill in the blank: the reported Ki of `CC[C@H](C)[C@H]1O[C@]2(CC[C@@H]1C)C[C@@H]1C[C@@H](C/C=C(\C)C[C@@H](C)/C=C/C=C3\CO[C@@H]4[C@H](O)C(C)=C[C@@H](C(=O)O1)[C@]34O)O2` is ____.
0.9
